study-system: T1, soluble human FcRn (shFcRn) (human, UniProt P55899 24-297; P61769 21-119, biotinylated with Sulfo-NHS-LC-Biotin in the ELISA; amine-coupled to a CM5 chip in SPR)
T1 construct: also called biotinylated shFcRn
T1 sequence (P55899 24-297 limits assumed, chain 1 of 2): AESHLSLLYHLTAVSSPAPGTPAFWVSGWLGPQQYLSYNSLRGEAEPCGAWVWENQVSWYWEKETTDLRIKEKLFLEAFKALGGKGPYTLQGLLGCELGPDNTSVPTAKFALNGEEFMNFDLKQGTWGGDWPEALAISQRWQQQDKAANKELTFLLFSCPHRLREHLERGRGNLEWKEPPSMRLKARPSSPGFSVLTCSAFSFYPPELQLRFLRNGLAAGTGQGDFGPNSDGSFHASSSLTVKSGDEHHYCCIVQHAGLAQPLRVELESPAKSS
T1 sequence (P61769 21-119 limits assumed, chain 2 of 2): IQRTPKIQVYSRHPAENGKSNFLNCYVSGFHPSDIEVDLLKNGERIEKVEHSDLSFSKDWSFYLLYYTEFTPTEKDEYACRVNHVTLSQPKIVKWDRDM
measurement-notes: SPR, pH 7.4
parameter-measured: pKd
Scale explanation: pKd corresponds to minus log10 of a concentration expressed in moles per litre.

binder: QRFXTGHFGXLYPCNGP (Pen4; D-His10; disulfide; C-terminal amide) [Peptide No. 42]
observed-value: 4.70

**Q:** pKd lookup needed for QRFCTGHFGXLYPCNGP (D-Ala10; disulfide; C-terminal amide) [Peptide No. 23] , thanks.
**A:** 3.74

**Q:** pKd lookup needed for RFVTGHFGXXYPA (Sar9; NMeLeu10; unbridged; C-terminal amide) [Peptide No. 236] , thanks.
**A:** 5.05

**Q:** pKd lookup needed for QRFXTGHFGXXYPCNGP (Pen4; Sar10; NMeLeu11; disulfide; C-terminal amide) [Peptide No. 187] , thanks.
**A:** 6.64

**Q:** pKd lookup needed for QRFCTGHFXGLYPCNGP (D-Ala9; disulfide; C-terminal amide) [Peptide No. 22] , thanks.
**A:** 3.86

**Q:** pKd lookup needed for QRFXTGHFXGLYPCNGP (Pen4; D-Pro9; disulfide; C-terminal amide) [Peptide No. 48] , thanks.
**A:** 4.68
